Values compiled from patent US12091411B2.

- target.entity: IRAK4 (Homo sapiens, UniProt Q9NWZ3)
- Construct: Degradation of IRAK4 in OCI-LY10 was quantitatively measured using Meso Scale Discovery technology; endogenous in cells; host or cells: OCI-LY10
- Sequence (Q9NWZ3 whole entry): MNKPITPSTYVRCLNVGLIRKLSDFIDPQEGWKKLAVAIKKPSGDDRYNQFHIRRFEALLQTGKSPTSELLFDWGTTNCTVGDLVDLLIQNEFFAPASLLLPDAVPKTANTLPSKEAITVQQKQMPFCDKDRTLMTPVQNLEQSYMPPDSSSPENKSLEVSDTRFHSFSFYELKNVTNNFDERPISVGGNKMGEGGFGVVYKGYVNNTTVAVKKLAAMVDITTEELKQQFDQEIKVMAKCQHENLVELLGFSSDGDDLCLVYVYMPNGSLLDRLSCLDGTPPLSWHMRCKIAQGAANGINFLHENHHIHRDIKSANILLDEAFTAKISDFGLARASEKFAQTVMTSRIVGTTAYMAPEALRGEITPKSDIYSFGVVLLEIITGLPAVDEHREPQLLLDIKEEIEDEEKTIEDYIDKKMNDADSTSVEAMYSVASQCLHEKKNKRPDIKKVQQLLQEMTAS
- protocol.summary: IRAK4 MSD Degradation in OCI-LY10
- Format: cell-based
- test.context: OCI-LY10 cells, 24 hrs incubation, MSD; read-out: IRAK4 degradation in OCI-LY10 at 24 hrs: DC50
quantity.name: DC50

// query For the compound CCn1c(=O)n(C2CCC(=O)NC2=O)c2cccc(C#CCOC3CCN(C[C@H]4CC[C@H](n5cc(NC(=O)c6cnn7ccc(N8C[C@H]9C[C@@H]8CO9)nc67)c(C(F)F)n5)CC4)CC3)c21 (stereo partly drawn) , what DC50 is on record?
// result > 0.2 µM

// query For the compound C[C@@H]1CN(c2ccn3ncc(C(=O)Nc4cn([C@H]5CC[C@H](CN6CCN(CC#Cc7cccc8c7n(C)c(=O)n8C7CCC(=O)NC7=O)CC6)CC5)nc4C(F)F)c3n2)C[C@@H](C)O1 (stereo partly drawn) , what DC50 is on record?
// result < 0.01 µM

// query For the compound Cn1c(=O)n(C2CCC(=O)NC2=O)c2cccc(C#CCN3CCN(C[C@H]4CC[C@H](n5cc(NC(=O)c6cnn7ccc(OC8CCC8)nc67)c(C(F)F)n5)CC4)CC3)c21 (stereo partly drawn) , what DC50 is on record?
// result > 0.2 µM

// query For the compound Cn1c(=O)n(C2CCC(=O)NC2=O)c2cccc([C@H]3C[C@H](COC4CCN(C[C@H]5CC[C@H](n6cc(NC(=O)c7cnn8ccc(N9C[C@H]%10C[C@@H]9CO%10)nc78)c(C(F)F)n6)CC5)CC4F)C3)c21 (stereo partly drawn) , what DC50 is on record?
// result > 0.2 µM

// query For the compound CN(C[C@H]1CC[C@H](n2cc3cc(NC(=O)c4cccc(C(F)(F)F)n4)c(S(C)(=O)=O)cc3n2)CC1)C1CCN(c2cccc3c2n(C)c(=O)n3C2CCC(=O)NC2=O)CC1F (stereo partly drawn) , what DC50 is on record?
// result > 0.2 µM

// query For the compound Cn1c(=O)n(C2CCC(=O)NC2=O)c2cccc([C@]34C[C@](COC5CCN(C[C@H]6CC[C@H](n7cc(NC(=O)c8cnn9ccc(N%10C[C@H]%11C[C@@H]%10CO%11)nc89)c(C(F)F)n7)CC6)CC5)(C3)C4)c21 (stereo partly drawn) , what DC50 is on record?
// result > 0.2 µM

// query For the compound CN(C[C@H]1CC[C@H](n2cc(NC(=O)c3cnn4ccc(N5CCCC5(C)C)nc34)c(C(F)F)n2)CC1)C1CCN(c2cccc3c2n(C)c(=O)n3C2CCC(=O)NC2=O)CC1(F)F (stereo partly drawn) , what DC50 is on record?
// result > 0.2 µM

// query For the compound Cn1c(=O)n(C2CCC(=O)NC2=O)c2cccc(C3CCN(C[C@H]4CC[C@H](n5cc6cc(NC(=O)c7cccc(C#N)n7)ccc6n5)CC4)CC3(F)F)c21 (stereo partly drawn) [I-716] , what DC50 is on record?
// result < 0.01 µM

// query For the compound Cn1c(=O)n(C2CCC(=O)NC2=O)c2cccc(N3CC(F)(CN(C)[C@H]4CC[C@H](n5cc6cc(NC(=O)c7cccc(C(F)(F)F)n7)ncc6n5)CC4)C3)c21 (stereo partly drawn) , what DC50 is on record?
// result > 0.2 µM

// query For the compound COc1cc2nn([C@H]3CC[C@H](CN4CCC5(CC4)CCN(c4cccc6c4n(C)c(=O)n6C4CCC(=O)NC4=O)CC5)CC3)cc2cc1NC(=O)c1cncc([S+]([O-])C(F)(F)F)c1 (stereo partly drawn) , what DC50 is on record?
// result > 0.2 µM

// query For the compound Cn1c(=O)n(C2CCC(=O)NC2=O)c2cccc(C3CC(CN4CCN(C[C@H]5CC[C@H](n6cc(NC(=O)c7cnn8ccc(N9C[C@H]%10C[C@@H]9CO%10)nc78)c(C(F)F)n6)CC5)CC4)C3)c21 (stereo partly drawn) , what DC50 is on record?
// result > 0.2 µM

// query For the compound Cn1c(=O)n(C2CCC(=O)NC2=O)c2cccc(N3CCN(C4CCN(C[C@H]5CC[C@H](n6cc(NC(=O)c7cnn8ccc(N9CC%10(COC%10)C9)nc78)c(C(F)F)n6)CC5)CC4(F)F)CC3)c21 (stereo partly drawn) , what DC50 is on record?
// result < 0.01 µM

// query For the compound Cn1c(=O)n(C2CCC(=O)NC2=O)c2cccc(N3CC(O[C@H]4CCN(C[C@H]5CC[C@H](n6cc(NC(=O)c7cnn8ccc(N9C[C@H]%10C[C@@H]9CO%10)nc78)c(C(F)F)n6)CC5)C[C@@H]4F)C3)c21 (stereo partly drawn) [I-733] , what DC50 is on record?
// result < 0.01 µM

// query For the compound CN(C[C@H]1CC[C@H](n2cc(NC(=O)c3cnn4ccc(N5CCO[C@H](C(F)F)C5)nc34)c(C(F)F)n2)CC1)C1CCN(c2cccc3c2n(C)c(=O)n3C2CCC(=O)NC2=O)CC1(F)F (stereo partly drawn) , what DC50 is on record?
// result > 0.2 µM

// query For the compound COc1nc([C@H]2CC[C@H](CN3CCC(OCC#Cc4cccc5c4n(C)c(=O)n5C4CCC(=O)NC4=O)CC3)CC2)ccc1NC(=O)c1cnn2ccc(N3C[C@H]4C[C@@H]3CO4)nc12 (stereo partly drawn) , what DC50 is on record?
// result > 0.2 µM
